# target-or-system: human sweet taste receptor (hT1R2/hT1R3) coupled to Gα15 (Homo sapiens, UniProt Q7RTX0+Q8TE23)
# Construct: expressed in transfected cells
# Sequence (Q8TE23 20-839): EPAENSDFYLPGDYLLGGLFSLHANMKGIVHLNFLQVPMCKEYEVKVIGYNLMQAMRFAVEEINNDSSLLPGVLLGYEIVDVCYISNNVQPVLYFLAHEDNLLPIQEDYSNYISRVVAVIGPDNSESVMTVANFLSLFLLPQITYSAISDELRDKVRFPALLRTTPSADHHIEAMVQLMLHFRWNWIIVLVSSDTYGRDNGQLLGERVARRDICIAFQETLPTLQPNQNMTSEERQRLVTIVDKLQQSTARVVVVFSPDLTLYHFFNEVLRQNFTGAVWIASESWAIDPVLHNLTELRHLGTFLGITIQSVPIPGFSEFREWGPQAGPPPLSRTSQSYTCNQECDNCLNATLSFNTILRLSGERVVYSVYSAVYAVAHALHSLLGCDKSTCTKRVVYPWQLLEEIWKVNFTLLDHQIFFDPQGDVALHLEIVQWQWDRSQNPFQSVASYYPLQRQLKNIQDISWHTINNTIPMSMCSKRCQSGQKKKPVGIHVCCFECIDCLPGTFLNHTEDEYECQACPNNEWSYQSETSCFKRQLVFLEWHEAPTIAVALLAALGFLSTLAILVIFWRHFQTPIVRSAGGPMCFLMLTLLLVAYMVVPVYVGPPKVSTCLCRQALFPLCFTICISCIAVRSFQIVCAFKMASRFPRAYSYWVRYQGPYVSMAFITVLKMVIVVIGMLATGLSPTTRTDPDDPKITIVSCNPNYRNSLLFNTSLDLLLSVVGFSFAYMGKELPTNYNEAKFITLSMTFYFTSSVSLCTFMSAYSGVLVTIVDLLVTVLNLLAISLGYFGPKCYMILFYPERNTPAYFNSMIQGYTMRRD
# Sequence (Q7RTX0 21-852): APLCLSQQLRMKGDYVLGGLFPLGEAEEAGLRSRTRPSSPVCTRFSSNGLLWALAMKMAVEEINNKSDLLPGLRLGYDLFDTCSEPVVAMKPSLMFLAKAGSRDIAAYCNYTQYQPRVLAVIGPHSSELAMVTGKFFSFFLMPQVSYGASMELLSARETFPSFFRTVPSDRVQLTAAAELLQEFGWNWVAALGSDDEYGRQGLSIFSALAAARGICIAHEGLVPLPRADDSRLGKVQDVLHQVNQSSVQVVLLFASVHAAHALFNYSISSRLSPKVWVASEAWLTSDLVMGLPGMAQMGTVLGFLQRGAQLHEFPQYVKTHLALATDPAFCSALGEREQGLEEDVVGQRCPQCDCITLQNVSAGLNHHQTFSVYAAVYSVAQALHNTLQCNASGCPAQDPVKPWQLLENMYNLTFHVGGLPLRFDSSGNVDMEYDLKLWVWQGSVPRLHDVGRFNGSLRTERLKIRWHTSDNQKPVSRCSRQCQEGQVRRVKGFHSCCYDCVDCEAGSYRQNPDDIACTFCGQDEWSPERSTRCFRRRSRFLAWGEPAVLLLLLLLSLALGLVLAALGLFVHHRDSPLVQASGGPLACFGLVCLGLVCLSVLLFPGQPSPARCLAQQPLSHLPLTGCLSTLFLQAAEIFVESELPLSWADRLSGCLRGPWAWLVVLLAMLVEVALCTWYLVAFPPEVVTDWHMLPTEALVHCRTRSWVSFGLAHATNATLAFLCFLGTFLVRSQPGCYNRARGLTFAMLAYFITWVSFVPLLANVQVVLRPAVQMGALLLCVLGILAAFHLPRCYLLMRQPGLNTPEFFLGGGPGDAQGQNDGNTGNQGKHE
# method-notes: FLIPR calcium mobilization assay, R2/R3 U2OS cells transduced with Gα15 baculovirus
# Assay type: cell-based
# experimental-context: ΔlogR FLIPR-Gα15 minus ΔlogR DMR
endpoint-label: ΔΔlogR Mean

Can you look up the measured ΔΔlogR Mean of C=C1C[C@@]23CC[C@H]4[C@@](C)(CCC[C@@]4(C)C(=O)O[C@@H]4O[C@H](CO)[C@@H](O)[C@H](O)[C@H]4O)[C@@H]2CC[C@]1(O[C@@H]1O[C@H](CO)[C@@H](O)[C@H](O)[C@H]1O[C@@H]1O[C@H](CO)[C@@H](O)[C@H](O)[C@H]1O)C3 [Stevioside] for me?
0.04

1: O=C1NS(=O)(=O)c2ccccc21
2: CCCOc1ccc([N+](=O)[O-])cc1N
Of the pair 1 and 2 , name the member with the lesser recorded ΔΔlogR Mean. Kindly give the label for the entry you pick.
1
(1: −0.16, 2: 0.36)
